Data origin, for the record: patent US9834548B2

Please respond with reported IC50 for every item in the list.
- test system: UniProt O60674
- Sequence (O60674 849-1124): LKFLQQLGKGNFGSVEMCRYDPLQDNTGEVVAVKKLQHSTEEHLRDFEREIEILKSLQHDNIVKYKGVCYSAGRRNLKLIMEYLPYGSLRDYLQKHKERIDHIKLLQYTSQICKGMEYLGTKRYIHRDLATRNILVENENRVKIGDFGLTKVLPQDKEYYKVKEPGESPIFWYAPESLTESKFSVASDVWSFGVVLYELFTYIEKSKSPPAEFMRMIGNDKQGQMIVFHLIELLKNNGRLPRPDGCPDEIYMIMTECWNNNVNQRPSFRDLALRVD
- method: Purified kinase assay (Z'-LYTE), JAK2
- Assay type: biochemical
- experimental conditions: Table 1; read-out: JAK2 IC50

Need IC50 of CC(C)n1cc(Nc2cc(NCc3cccc(F)c3F)c(C(N)=O)nn2)cn1 , thanks.
100 to 1000 nM

Need IC50 of CCn1cc(Nc2cc(NCc3cccc4ccsc34)c(C(N)=O)nn2)cn1 , thanks.
10 to 100 nM

Need IC50 of COc1cc(Nc2cc(NCc3cccc(F)c3)c(C(N)=O)nn2)ccc1C(=O)N1CCCC1 , thanks.
100 to 1000 nM

Need IC50 of CC(=O)N1CCN(c2ccc(Nc3cc(NCc4cccc(-c5ccccn5)c4)c(C(N)=O)nn3)cc2)CC1 , thanks.
> 1000 nM

Need IC50 of NC(=O)c1nnc(Nc2cnn(CC3CC3)c2)cc1NCc1cccc(F)c1F , thanks.
100 to 1000 nM

Need IC50 of CN(C)C(=O)N1CCC(Cn2cc(Nc3cc(NCc4cccc(F)c4F)c(C(N)=O)nn3)cn2)CC1 , thanks.
100 to 1000 nM

Need IC50 of CC(=O)N1CCC(Cn2cc(Nc3cc(NCc4cccc(F)c4F)c(C(N)=O)nn3)cn2)CC1 , thanks.
100 to 1000 nM

Need IC50 of CC(=O)N1CCN(c2ccc(Nc3cc(NCc4cc(F)cc(F)c4)c(C(N)=O)nn3)cc2)CC1 , thanks.
10 to 100 nM

Need IC50 of CN(C)C(=O)c1ccc(Nc2cc(NCc3cccc(F)c3)c(C(N)=O)nn2)cc1 , thanks.
100 to 1000 nM

Need IC50 of Cc1cc(Nc2cc(NCc3cccc(F)c3F)c(C(N)=O)nn2)ccc1C(=O)N1CCCC1 , thanks.
10 to 100 nM

Need IC50 of CC(=O)N1CCN(c2ccc(Nc3cc(N[C@H](C)C(C)C)c(C(N)=O)nn3)cc2)CC1 , thanks.
10 to 100 nM

Need IC50 of CC(=O)N1CCN(c2ccc(Nc3cc(NC4CCCC4)c(C(N)=O)nn3)cc2)CC1 , thanks.
100 to 1000 nM

Need IC50 of CN(C)C(=O)C1CCN(c2ccc(Nc3cc(NCc4cccc(F)c4)c(C(N)=O)nn3)cc2)CC1 , thanks.
100 to 1000 nM

Need IC50 of CS(=O)(=O)c1ccc(Nc2cc(NCc3cccc(F)c3)c(C(N)=O)nn2)cc1 , thanks.
> 1000 nM

* * *

- test system: JAK3 (Homo sapiens (Human))
- method: Purified kinase assay (Z'-LYTE), JAK3
- Assay type: biochemical
- experimental conditions: Table 1; read-out: JAK3 IC50
pIC50: −log10 of the molar value.
assay endpoint: pIC50

Need pIC50 of NC(=O)c1nnc(Nc2ccc(C(=O)N3CCCC3)cc2)cc1NCc1cc(F)cc(F)c1 [Compound 82] , thanks.
8.00 to 9.00

Need pIC50 of NC(=O)c1nnc(Nc2ccc(OCCN3CCCC3)cc2)cc1NCc1cccc(F)c1 [Compound 51] , thanks.
7.00 to 8.00

Need pIC50 of CCC(=O)N1CCC(c2ccc(Nc3cc(NCc4cccc(F)c4)c(C(N)=O)nn3)cc2)CC1 [Compound 26] , thanks.
7.00 to 8.00

Need pIC50 of C[S+]([O-])Cc1ccc(Nc2cc(NCc3cccc(F)c3)c(C(N)=O)nn2)cc1 (centres unmarked) [Compound 105] , thanks.
7.00 to 8.00

Need pIC50 of NC(=O)c1nnc(Nc2ccc(N3CCOCC3)cc2)cc1NCc1cccc(F)c1F [Compound 38] , thanks.
7.00 to 8.00

* * *

Please respond with reported IC50 for every item in the list.
- test system: JAK3 (Homo sapiens (Human))
- method: Purified kinase assay (Z'-LYTE), JAK3
- Assay type: biochemical
- experimental conditions: Table 1; read-out: JAK3 IC50

Need IC50 of CCC(=O)N1CCN(c2ccc(Nc3cc(NCc4cc(F)cc(F)c4)c(C(N)=O)nn3)cc2)CC1 [Compound 31] , thanks.
1 to 10 nM

Need IC50 of Cc1cc(Nc2cc(NCc3cccc(F)c3)c(C(N)=O)nn2)ccc1N1CCOCC1 [Compound 54] , thanks.
10 to 100 nM

Need IC50 of CN(c1ccc(Nc2cc(NCc3cccc(F)c3)c(C(N)=O)nn2)cc1)S(C)(=O)=O [Compound 102] , thanks.
10 to 100 nM

Need IC50 of CC(=O)N1CCN(c2ccc(Nc3cc(NCC4CCC4)c(C(N)=O)nn3)cc2)CC1 [Compound 16] , thanks.
10 to 100 nM

Need IC50 of Cc1cc(Nc2cc(NCc3cccc(F)c3)c(C(N)=O)nn2)ccc1C(=O)N(C)C [Compound 60] , thanks.
10 to 100 nM

Need IC50 of NC(=O)c1nnc(Nc2ccc(C(=O)N3CCCC3)c(Cl)c2)cc1NCc1cccc(F)c1 [Compound 55] , thanks.
10 to 100 nM

Need IC50 of NC(=O)c1nnc(Nc2ccc(N3CCNCC3)cc2)cc1NCc1cccs1 [Compound 22] , thanks.
10 to 100 nM

Need IC50 of CC(=O)N1CCN(c2ccc(Nc3cc(NCc4ccccc4F)c(C(N)=O)nn3)cc2)CC1 [Compound 18] , thanks.
1 to 10 nM

Need IC50 of CCC(=O)N1CCC(Cn2cc(Nc3cc(NCc4cccc(F)c4)c(C(N)=O)nn3)cn2)CC1 [Compound 130] , thanks.
10 to 100 nM

Need IC50 of CC(=O)N1CCN(c2ccc(Nc3cc(NCc4cccc5[nH]ccc45)c(C(N)=O)nn3)cc2)CC1 [Compound 109] , thanks.
< 1 nM

Need IC50 of CS(=O)(=O)Cc1ccc(Nc2cc(NCc3cccc(-c4ccncc4)c3)c(C(N)=O)nn2)cc1 [Compound 132] , thanks.
10 to 100 nM

Need IC50 of CCC(=O)N1CCN(c2ccc(Nc3cc(NCc4cccc5[nH]ccc45)c(C(N)=O)nn3)cc2)CC1 [Compound 110] , thanks.
1 to 10 nM

Need IC50 of Cc1cc(Nc2cc(NCc3cccc(F)c3)c(C(N)=O)nn2)ccc1C(=O)N1CCCC1 [Compound 61] , thanks.
1 to 10 nM

Need IC50 of CC(=O)N1CCN(c2ccc(Nc3cc(NCc4ccccc4)c(C(N)=O)nn3)cc2)CC1 [Compound 5] , thanks.
10 to 100 nM

Need IC50 of CS(=O)(=O)Cc1ccc(Nc2cc(NCc3cccc(F)c3F)c(C(N)=O)nn2)cc1 [Compound 89] , thanks.
1 to 10 nM

Need IC50 of CC(=O)N1CCN(c2ccc(Nc3cc(NCc4ccccc4F)c(C(N)=O)nn3)nc2)CC1 [Compound 28] , thanks.
1 to 10 nM

Need IC50 of CCC(=O)N1CCC(Cn2cc(Nc3cc(NCc4cccc(F)c4F)c(C(N)=O)nn3)cn2)CC1 [Compound 129] , thanks.
1 to 10 nM

* * *

- test system: JAK3 (Homo sapiens (Human), UniProt P52333)
- Sequence (P52333 822-1111): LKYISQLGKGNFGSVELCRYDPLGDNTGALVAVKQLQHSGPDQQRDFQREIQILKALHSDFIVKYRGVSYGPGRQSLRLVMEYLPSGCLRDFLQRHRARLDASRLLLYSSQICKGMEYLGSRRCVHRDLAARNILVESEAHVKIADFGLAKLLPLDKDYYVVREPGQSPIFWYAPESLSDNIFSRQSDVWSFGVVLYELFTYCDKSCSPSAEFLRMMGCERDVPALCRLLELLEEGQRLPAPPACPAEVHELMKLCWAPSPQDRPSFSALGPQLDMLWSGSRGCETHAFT
- method: Purified kinase assay (Z'-LYTE), JAK3
- Assay type: biochemical
- experimental conditions: Table 1; read-out: JAK3 IC50
pIC50: −log10 of the molar value.
Please respond with reported pIC50 for every item in the list.

Need pIC50 of CCC(=O)N1CCC(Cn2cc(Nc3cc(NCc4cccc5ccsc45)c(C(N)=O)nn3)cn2)CC1 , thanks.
8.00 to 9.00

Need pIC50 of CN(C)C(=O)c1ccc(Nc2cc(NCc3cccc(F)c3)c(C(N)=O)nn2)cc1 , thanks.
7.00 to 8.00

Need pIC50 of NC(=O)c1nnc(Nc2cccc(CN3CCOCC3)c2)cc1NCc1cccc(F)c1 , thanks.
7.00 to 8.00

Need pIC50 of Cn1cc(Nc2cc(NCc3cccc(F)c3)c(C(N)=O)nn2)cn1 , thanks.
7.00 to 8.00

Need pIC50 of NC(=O)c1nnc(Nc2cnn(CC3CCOCC3)c2)cc1NCc1cccc(F)c1F , thanks.
8.00 to 9.00

Need pIC50 of CN(C)C(=O)Cn1cc(Nc2cc(NCc3cccc4ccsc34)c(C(N)=O)nn2)cn1 , thanks.
7.00 to 8.00

Need pIC50 of CC(=O)N1CCN(c2ccc(Nc3cc(NCc4cc(F)cc(F)c4)c(C(N)=O)nn3)cc2)CC1 , thanks.
8.00 to 9.00

Need pIC50 of CC(C)Nc1cc(Nc2ccc(N3CCNCC3)cc2)nnc1C(N)=O , thanks.
< 6.00

Need pIC50 of NC(=O)c1nnc(Nc2ccc(N3CCNCC3)cc2)cc1NC1CCCCC1 , thanks.
6.00 to 7.00

Need pIC50 of Cc1cc(Nc2cc(NCc3cccc(F)c3F)c(C(N)=O)nn2)ccc1N1CCOCC1 , thanks.
7.00 to 8.00

Need pIC50 of NC(=O)c1nnc(Nc2ccc(C(=O)N3CCCC3)cc2)cc1NCc1cccc(F)c1 , thanks.
7.00 to 8.00

Need pIC50 of CC(=O)N1CCC(Cn2cc(Nc3cc(NCc4cccc(F)c4)c(C(N)=O)nn3)cn2)CC1 , thanks.
7.00 to 8.00

Need pIC50 of NC(=O)c1nnc(Nc2cnn(CC3CC3)c2)cc1NCc1cccc2ccsc12 , thanks.
7.00 to 8.00

Need pIC50 of NC(=O)c1nnc(Nc2ccc(N3CCOCC3)cc2)cc1NCc1c(F)cccc1F , thanks.
8.00 to 9.00

Need pIC50 of CC(=O)N1CCN(c2ccc(Nc3cc(NC4(c5ccccc5)CC4)c(C(N)=O)nn3)cc2)CC1 , thanks.
7.00 to 8.00

Need pIC50 of CC(C)n1cc(Nc2cc(NCc3c(F)cccc3F)c(C(N)=O)nn2)cn1 , thanks.
8.00 to 9.00

Need pIC50 of CCC(=O)N1CCN(c2ccc(Nc3cc(NCc4cc(F)ccc4F)c(C(N)=O)nn3)cc2)CC1 , thanks.
8.00 to 9.00

Need pIC50 of CC(=O)N1CCN(c2ccc(Nc3cc(NCc4cccc(C#N)c4)c(C(N)=O)nn3)cc2)CC1 , thanks.
7.00 to 8.00

Need pIC50 of CC(=O)N1CCC(Cn2cc(Nc3cc(NCc4cccc(F)c4F)c(C(N)=O)nn3)cn2)CC1 , thanks.
8.00 to 9.00

Need pIC50 of CCC(=O)N1CCC(c2ccc(Nc3cc(NCc4cc(F)cc(F)c4)c(C(N)=O)nn3)cc2)CC1 , thanks.
7.00 to 8.00

Need pIC50 of NC(=O)c1nnc(Nc2ccc(N3CCNCC3)nc2)cc1NCc1cccc(F)c1 , thanks.
6.00 to 7.00

Need pIC50 of NC(=O)c1nnc(Nc2cc(F)c(N3CCOCC3)c(F)c2)cc1NCc1cccc(F)c1F , thanks.
< 6.00
